Data credit: patent US11203613B2

Target: Human Constitutive (Hu C-20S) β5 Active Subunit (Homo sapiens, UniProt P28074)
Experiment: IC50 determination, human constitutive 20S proteasome β5c (suc-LLVY-AMC hydrolysis)
Assay type: biochemical
Conditions: Table 2; several values in a cell are repeat determinations; read-out: Hu c-20S IC50
param class (str): category from IC50; see ranges interval 1 (below 8 µM), interval 2 (8 µM to below 20 µM), interval 3 (20 µM or more)

- compound: "Cc1cc(C(=O)N[C@@H](CC(=O)N2CCCC[C@@H]2C)C(=O)N[C@@H](C)c2nc3ccccc3[nH]2)no1"
  assigned.class: "interval 2"
- compound: "Cc1cc(C(=O)N[C@@H](CC(=O)N2CCCC[C@@H]2C)C(=O)NC(C)c2nc3ccccc3[nH]2)no1 (some centres unmarked) [drawing 395]"
  assigned.class: "interval 3"
- compound: "CC[C@H]1CCCCN1C(=O)C[C@H](Nc1nc2cc(C)ccc2o1)C(=O)N[C@@H](C)c1nc2c(F)cccc2[nH]1"
  assigned.class: "interval 1"
- compound: "CC1CC(C(=O)N[C@@H](CC(=O)N2CCC[C@@H]2c2ccccc2)C(=O)NC(C)c2nc3ccccc3[nH]2)C1 (some centres unmarked)"
  assigned.class: "interval 2"
- compound: "C[C@H](NC(=O)[C@H](CC(=O)N1CCC[C@@H]1C)NC(=O)CCC(C)(C)C)c1nc2ccccc2[nH]1"
  assigned.class: "interval 2"
- compound: "C[C@H](NC(=O)[C@H](CC(=O)N1CCCC[C@@H]1C)NS(=O)(=O)CCC1CC1)c1ncc(-c2ccc(F)cc2F)[nH]1"
  assigned.class: "interval 1"
- compound: "CC(C)CCS(=O)(=O)NC(CC(=O)N1CCCC1c1ccccc1)C(=O)NC(C)c1nc2ccccc2[nH]1 (centres unmarked)"
  assigned.class: "interval 2"
- compound: "C[C@H](NC(=O)[C@H](CC(=O)N1CCCC1)NC(=O)CCC(C)(C)C)c1ncc(-c2ccc(F)cc2F)[nH]1"
  assigned.class: "interval 2"
- compound: "CC(C)CCC(=O)N[C@@H](CC(=O)N1CCCC[C@@H]1C(F)(F)F)C(=O)N[C@@H](C)c1nc(-c2ccc(F)cc2F)c[nH]1"
  assigned.class: "interval 1"
- compound: "CC(C)CCC(=O)N[C@@H](CC(=O)N1CCCC[C@@H]1C)C(=O)N[C@H](C)c1nc2ccccc2[nH]1"
  assigned.class: "interval 2"
- compound: "CCS(=O)(=O)N[C@@H](CC(=O)N1CCCC[C@@H]1C)C(=O)N[C@@H](C)c1ncc(-c2ccc(F)cc2F)[nH]1"
  assigned.class: "interval 3"
- compound: "Cc1cc(C(=O)N[C@@H](CC(=O)N2CCCC[C@@H]2C)C(=O)N[C@@H](C)c2nc3c(F)cccc3[nH]2)no1"
  assigned.class: "interval 1"
